# system.under.test: B. burgdorferi HtpG (Borreliella burgdorferi)
# Construct: His6 (N); made in house; host or cells: E. coli BL21(DE3)
# Sequence (P42555 whole entry): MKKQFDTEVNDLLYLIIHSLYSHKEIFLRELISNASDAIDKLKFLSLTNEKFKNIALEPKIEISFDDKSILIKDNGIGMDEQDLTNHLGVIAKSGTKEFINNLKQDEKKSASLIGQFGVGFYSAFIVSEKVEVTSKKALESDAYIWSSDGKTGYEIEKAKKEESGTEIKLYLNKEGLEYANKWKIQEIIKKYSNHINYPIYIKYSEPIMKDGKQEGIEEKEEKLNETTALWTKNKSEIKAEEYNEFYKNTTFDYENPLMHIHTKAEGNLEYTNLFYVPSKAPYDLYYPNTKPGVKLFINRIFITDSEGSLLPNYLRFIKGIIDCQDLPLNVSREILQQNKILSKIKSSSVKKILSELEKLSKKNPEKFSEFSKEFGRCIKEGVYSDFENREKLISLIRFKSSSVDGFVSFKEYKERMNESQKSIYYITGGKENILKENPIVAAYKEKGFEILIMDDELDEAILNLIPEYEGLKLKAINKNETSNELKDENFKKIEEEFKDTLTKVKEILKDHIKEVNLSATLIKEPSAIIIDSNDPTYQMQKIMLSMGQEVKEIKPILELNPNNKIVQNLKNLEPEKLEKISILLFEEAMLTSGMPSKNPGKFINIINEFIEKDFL
# method: biochemical
# Type: binding, Borrelia burgdorferi
# measurement.parameters: read-out: Kd, B. burgdorferi
test.readout: Kd (µM)
The response must be a number in µM with no trailing unit.

compound="CC(C)NCCCn1c(Sc2cc3c(cc2I)OCO3)nc2c(N)ncnc21 [PU-H71, reference compound]" system_under_test="B. burgdorferi HtpG (Borreliella burgdorferi)" numeric_result=0.5

Q. Lab note: need Kd with B. burgdorferi HtpG (Borreliella burgdorferi) for entry C[C@@H]1C[C@H]2O[C@@H]2/C=C\C=C\C(=O)Cc2c(Cl)c(O)cc(O)c2C(=O)O1 [RADICICOL, radicicol, reference compound] , please look it up.
A. 0.1

###

# system.under.test: E. coli HtpG (Escherichia coli, UniProt P0A6Z3)
# Construct: His6 (N); made in house; host or cells: E. coli BL21(DE3)
# Sequence (P0A6Z3 whole entry): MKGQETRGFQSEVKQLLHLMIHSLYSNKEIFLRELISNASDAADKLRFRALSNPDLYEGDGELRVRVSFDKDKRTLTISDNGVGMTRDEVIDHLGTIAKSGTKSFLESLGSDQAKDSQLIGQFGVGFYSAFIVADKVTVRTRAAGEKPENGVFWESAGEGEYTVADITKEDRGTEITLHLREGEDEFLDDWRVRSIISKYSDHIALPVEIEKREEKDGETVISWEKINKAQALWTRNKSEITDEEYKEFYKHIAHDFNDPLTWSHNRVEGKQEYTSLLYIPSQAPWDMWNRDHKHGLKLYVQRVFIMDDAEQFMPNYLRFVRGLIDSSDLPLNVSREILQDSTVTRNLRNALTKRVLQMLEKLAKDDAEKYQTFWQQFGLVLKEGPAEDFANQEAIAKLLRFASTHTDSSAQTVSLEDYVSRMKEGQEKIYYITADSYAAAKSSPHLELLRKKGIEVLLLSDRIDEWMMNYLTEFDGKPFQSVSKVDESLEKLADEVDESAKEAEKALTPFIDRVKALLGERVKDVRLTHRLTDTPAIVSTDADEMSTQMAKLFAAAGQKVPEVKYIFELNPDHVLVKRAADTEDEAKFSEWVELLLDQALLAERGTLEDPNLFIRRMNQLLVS
# method: biochemical
# Type: binding
# measurement.parameters: read-out: Kd, E. coli
test.readout: Kd (nM)
Provide only the numeric value, understood in nM.

Q. State the recorded Kd for this entry: C[C@@H]1C[C@H]2O[C@@H]2/C=C\C=C\C(=O)Cc2c(Cl)c(O)cc(O)c2C(=O)O1 [RADICICOL, radicicol, reference compound]
A. 100

###

# system.under.test: E. coli HtpG (Escherichia coli, UniProt P0A6Z3)
# Construct: His6 (N); made in house; host or cells: E. coli BL21(DE3)
# method: biochemical
# Assay type: binding
# measurement.parameters: Kd = EC50/(1+[resin ligand/Km]); n = 3; mean ± SEM; read-out: Kd, E. coli
test.readout: Kd (µM)
Please state the figure in µM; there is no need to write the unit.

Q. What is its Kd for E. coli HtpG (Escherichia coli, UniProt P0A6Z3)? Entry: CC(C)NCCCn1c(Sc2cc3c(cc2I)OCO3)nc2c(N)ncnc21 [PU-H71, reference compound]
A. 4.3

###

Parameter: pKd. Scope: all listed entries.
# system.under.test: UniProt:P61188
# Sequence (P61188 whole entry): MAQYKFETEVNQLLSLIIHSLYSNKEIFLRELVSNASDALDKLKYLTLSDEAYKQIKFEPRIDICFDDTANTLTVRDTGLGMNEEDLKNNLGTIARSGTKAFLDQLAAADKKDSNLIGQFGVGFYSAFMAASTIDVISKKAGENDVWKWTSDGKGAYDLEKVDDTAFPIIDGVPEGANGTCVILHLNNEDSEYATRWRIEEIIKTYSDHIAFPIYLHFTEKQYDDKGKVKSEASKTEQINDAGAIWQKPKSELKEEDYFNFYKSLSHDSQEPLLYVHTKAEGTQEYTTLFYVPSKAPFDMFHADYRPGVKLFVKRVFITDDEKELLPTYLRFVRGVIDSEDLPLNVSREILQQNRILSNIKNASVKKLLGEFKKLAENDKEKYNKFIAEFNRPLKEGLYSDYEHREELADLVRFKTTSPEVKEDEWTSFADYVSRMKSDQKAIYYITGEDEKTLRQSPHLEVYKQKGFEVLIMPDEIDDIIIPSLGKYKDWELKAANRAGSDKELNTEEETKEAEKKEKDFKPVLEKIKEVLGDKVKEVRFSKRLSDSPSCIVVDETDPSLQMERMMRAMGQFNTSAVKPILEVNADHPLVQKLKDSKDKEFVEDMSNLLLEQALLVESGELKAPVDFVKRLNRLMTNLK
# method: FLECS assay, elution of GFP-HtpG from ATP Sepharose
# Assay type: binding
When answering, recall that pKd equals minus log10 of the concentration in mol/L, and write that number alone.

Below are worked cases with known answers.
compound="COC1=C2C[C@@H](C)C[C@H](OC)[C@H](O)[C@@H](C)/C=C(\\C)[C@H](OC(N)=O)[C@@H](OC)/C=C\\C=C(/C)C(=O)NC(=CC1=O)C2=O [GELDANAMYCIN, geldanamycin, reference compound]" numeric_result=5.30
compound="C[C@@H]1C[C@H]2O[C@@H]2/C=C\\C=C\\C(=O)Cc2c(Cl)c(O)cc(O)c2C(=O)O1 [RADICICOL, radicicol, reference compound]" numeric_result=5.52

The record that follows has no pKd shown yet.
Q. Would you mind telling me what pKd value was observed for CC(C)c1cc(-c2n[nH]c(=O)n2-c2ccc3c(ccn3C)c2)c(O)cc1O ?
A. 7.52

Entry source: paper PMC8218751
